- experimentalSystem: S-adenosylmethionine decarboxylase proenzyme (Rattus norvegicus, UniProt P17708)
- Sequence (P17708 whole entry): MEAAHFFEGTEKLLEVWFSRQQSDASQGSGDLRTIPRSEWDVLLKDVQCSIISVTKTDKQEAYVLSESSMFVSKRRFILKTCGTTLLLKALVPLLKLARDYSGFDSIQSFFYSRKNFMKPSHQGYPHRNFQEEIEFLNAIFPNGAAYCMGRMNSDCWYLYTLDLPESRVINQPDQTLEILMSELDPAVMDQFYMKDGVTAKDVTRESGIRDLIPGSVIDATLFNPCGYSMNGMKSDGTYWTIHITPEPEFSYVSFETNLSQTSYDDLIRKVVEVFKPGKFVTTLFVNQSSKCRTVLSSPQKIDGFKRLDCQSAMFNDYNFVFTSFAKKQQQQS
readout: pKi
Please express pKi as -log10 of the molar concentration.

CN(CCCN)C[C@H]1O[C@@H](n2cnc3c(N)ncnc32)[C@H](O)[C@@H]1O    3.96

Below: the item to evaluate.
Please list pKi recorded for the compound CC(N)CC[S+](C)C[C@H]1O[C@@H](n2cnc3c(N)ncnc32)[C@H](O)[C@@H]1O (some centres not stated)
3.92
